Where do the numbers come from? From patent US20260262643A1.

Test system: ryegrass, Italian
test-name: Test C postemergence
Assay type: in vivo, Lolium multiflorum
condition-summary: Postemergence, 125 g ai/ha; 0 to 100 scale (0 no effect, 100 complete control), 10 days
reported-metric: Plant response rating, Ryegrass, Italian
Reply with the value as a number alone.

Solved cases (5 shown):
Plant response rating, Ryegrass, Italian lookup needed for Cc1cccc2c1OC(C(F)(F)F)CN2C(=O)c1ccnc(-n2cnc(C(C)(C)C)n2)c1 (centres unmarked) , thanks.
30

Field request: Plant response rating, Ryegrass, Italian | item: COC[C@H]1CN(C(=O)c2cc(-n3cnc(C(C)C)n3)ccc2C)c2cccc(Cl)c2O1
80

Need Plant response rating, Ryegrass, Italian, item CCc1cc(C(=O)N2C[C@H](C)Oc3c(Cl)cccc32)cc(-n2cncn2)c1
60

Requested read-out: Plant response rating, Ryegrass, Italian. Entry: Cc1ccc(-n2cnc(C(C)(C)C)n2)cc1C(=O)N1CC(C(F)(F)F)Oc2c(Cl)cccc21 (centres unmarked)
10

Tell me the measured Plant response rating, Ryegrass, Italian of COc1ncn(-c2cccc(C(=O)N3C[C@H](C)Oc4c(C)cccc43)c2)n1 , please.
60

---
What does the data say about its Plant response rating, Ryegrass, Italian? Entry: Cc1ncn(-c2ccc(F)c(C(=S)N3C[C@H](C)Oc4c(C)cccc43)c2)n1
80

Query (compound): CC(=O)N(C)c1ncn(-c2cccc(C(=O)N3C[C@H](C)Oc4c(C)cccc43)c2)n1 ; field requested: Plant response rating, Ryegrass, Italian
50

Using the record for COC[C@H]1CN(C(=O)c2cc(-n3cnc(C(C)(C)O)n3)ccc2OC)c2cccc(Cl)c2O1 , report its Plant response rating, Ryegrass, Italian.
70

* * *

Test system: oat, wild
test-name: Test A preemergence
Assay type: in vivo, Avena fatua
condition-summary: Avena fatua, pre-emergence, 240 h, 500 g ai/ha, 0 to 100 scale (0 no effect, 100 complete control), 10 days, read-out: Plant response rating, Oat, Wild
Measured pest or weed control at 500 g/ha of individual entries
Answer in %, number only, no unit symbol.

Returns the measured pest or weed control at 500 g/ha for the input compound. Input: Cc1cccc2c1O[C@@H](C)CN2C(=O)c1cccc(-n2cnc(Br)n2)c1 [Compound 61]
30

More entries:
What value of measured pest or weed control at 500 g/ha is listed for COc1ccc(-n2cncn2)cc1C(=O)N1C[C@H](C)Oc2c(C)cccc21 [Compound 63] ?
90

Item CCc1ccc(-n2cnc(C(C)C)n2)cc1C(=O)N1C[C@H](C)Oc2c(Cl)cccc21 [Compound 94] has what recorded pest or weed control at 500 g/ha?
90

Need pest or weed control at 500 g/ha, item Cc1cccc2c1O[C@@H](C)CN2C(=O)c1cccc(-n2cnc(C3COC3)n2)c1 [Compound 109]
90

* * *

System: wheat
test-name: Test C preemergence
Format: in vivo, Triticum aestivum
condition-summary: 500 g ai/ha, preemergence; 0 to 100 scale (0 no effect, 100 complete control)
Description: […]
reported-metric: Wheat plant response rating
Please give the numeric answer without any surrounding text.

Please state recorded Wheat plant response rating (tested on wheat) of COc1ccc(-n2cncn2)cc1C(=O)N1C[C@H](C)Oc2c(F)cccc21
90

Next:
Given the entry Cc1ccc(-n2cnc(C#N)n2)cc1C(=O)N1C[C@H](C)Oc2c(Cl)cccc21 , what Wheat plant response rating was observed with wheat?
0

Report Wheat plant response rating for CCc1ncn(-c2cccc(C(=O)N3CC(C(F)(F)F)Oc4c(C)cccc43)c2)n1 (centres unmarked) tested on wheat.
80

# get_value(readout= Wheat plant response rating, system= wheat) for COC[C@H]1CN(C(=O)c2cc(-n3cnc(C(C)(C)O)n3)ccc2OC)c2cccc(Cl)c2O1
60

Provide the documented Wheat plant response rating with wheat as the system for C=C(C)c1cc(C(=O)N2C[C@H](C)Oc3c(Cl)cccc32)cc(-n2cncn2)c1
0
